Quick reference for corrected association response among some binders
Biological target: T1, human 5T4ECDHis (mature protein of SEQ ID NO: 99) (human, UniProt Q13641 32-355)
T1 construct: ECD of human 5T4 (aa 1-355 of Uniprot Q13641) with C-terminal His tag; residues 1-31 are the signal peptide; also called ECD of human 5T4 with a C-terminal His tag
T1 sequence: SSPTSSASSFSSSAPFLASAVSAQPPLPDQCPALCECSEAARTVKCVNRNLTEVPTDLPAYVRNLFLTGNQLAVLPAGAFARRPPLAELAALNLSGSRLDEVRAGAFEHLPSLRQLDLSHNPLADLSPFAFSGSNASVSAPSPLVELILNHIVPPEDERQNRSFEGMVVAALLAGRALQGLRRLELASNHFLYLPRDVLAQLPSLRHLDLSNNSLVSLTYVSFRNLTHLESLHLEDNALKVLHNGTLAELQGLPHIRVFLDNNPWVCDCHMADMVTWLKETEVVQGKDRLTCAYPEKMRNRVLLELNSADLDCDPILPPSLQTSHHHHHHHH
Assay: BLI cross-block; competitor (immobilised): IgG1-5T4-076-FEAR
Enter your answer as a number in nm; do not include the unit.

A selection of reference data follows.
>  <Binder>
IgG1-5T4-076-FEAR (antibody, V domains shown, Monospecific, bivalent human IgG1 kappa with L234F, L235E, D265A, K409R (FEAR)) VH: QVQLVQSGAEVKKPGASVKVSCKASGYTFTSYGISWVRQAPGQGLEWMGWISAYNGNTNYAQKLQGRVTMTTDTSTRTAYMELRSLRSDDTAVYYCARDPGYFDWLYGDYWGQGTLVTVSS VL: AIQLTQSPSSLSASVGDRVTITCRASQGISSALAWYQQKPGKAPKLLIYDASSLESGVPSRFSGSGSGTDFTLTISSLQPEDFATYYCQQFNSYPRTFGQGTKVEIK

>  <Measure>
corrected association response

>  <Value>
-0.01

$$$$
>  <Binder>
IgG1-5T4-106-FEAR (antibody, V domains shown, Monospecific, bivalent human IgG1 kappa with L234F, L235E, D265A, K409R (FEAR)) VH: EVQLVQSGAEVKKPGESLKISCKGSGYRFTSYWIGWVRQMPGKGLEWMGIIYPGDSDARYSPSFQGQVTISADKSISTAYLQWSSLKASDTGMYYCARSVLFDYWGQGTLVTVSS VL: AIQLTQSPSSLSASVGDRVTITCRASQGISSALAWYQQKPGKAPKLLIYDVSNLESGVPSRFSGSGSGTDFTLTISSLQPEDFATYYCQQFNSYPHTFGQGTKLEIK

>  <Measure>
corrected association response

>  <Value>
-0.02

$$$$
>  <Binder>
IgG1-5T4-226-FEAR (antibody, V domains shown, Monospecific, bivalent human IgG1 kappa with L234F, L235E, D265A, K409R (FEAR); also called IgG1-5T4-226-FEAR-FITC) VH: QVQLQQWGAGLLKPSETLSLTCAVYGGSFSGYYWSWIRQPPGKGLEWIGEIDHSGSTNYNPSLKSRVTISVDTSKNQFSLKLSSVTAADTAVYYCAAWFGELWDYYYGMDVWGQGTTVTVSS VL: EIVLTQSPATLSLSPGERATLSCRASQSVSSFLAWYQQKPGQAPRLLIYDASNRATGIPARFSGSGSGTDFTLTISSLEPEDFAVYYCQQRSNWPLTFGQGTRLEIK

>  <Measure>
corrected association response

>  <Value>
0.05

$$$$

Problem: Complete the entry with corrected association response for IgG1-5T4-H8-FEAR (antibody, V domains shown, Based on 5T4 antibody H8 from Wyeth (WO 2007/106744); IgG1 with L234F, L235E, D265A, K409R (FEAR); also called IgG1-5T4-HS-FEAR; IgG1-5T4-H8-FEAR-FITC) VH: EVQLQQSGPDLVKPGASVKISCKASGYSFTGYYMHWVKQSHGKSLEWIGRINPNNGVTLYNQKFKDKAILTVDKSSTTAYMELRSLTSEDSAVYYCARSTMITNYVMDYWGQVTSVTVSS VL: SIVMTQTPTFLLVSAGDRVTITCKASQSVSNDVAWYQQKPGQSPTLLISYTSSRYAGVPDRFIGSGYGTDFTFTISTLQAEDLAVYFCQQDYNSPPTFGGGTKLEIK
Solution: 0

Problem: Complete the entry with corrected association response for IgG1-5T4-127-FEAR (antibody, V domains shown, Monospecific, bivalent human IgG1 kappa with L234F, L235E, D265A, K409R (FEAR)) VH: EVQLLESRGGLVQPGGSLRLSCAASGFTFSSYAMSWVRQAPGKGLEWVSTISGSGGSTYYADSVKGRFTISRDNSKKTLYLQMNSLRAEDTAVYYCAKDWGSGSYPAEYFQHWGQGTLVTVSS VL: EIVLTQSPATLSLSPGERATLSCRASQSVSSYLAWYQQKPGQAPRLLIYDASNRATGIPARFSGSGSGTDFTLTISSLEPEDFAVYYCQQRSNWLMYTFGQGTKLEIK
Solution: -0.02
